Source: PubChem BioAssay (NCI)

Attribute: growth
# System: NCI-H322M lung
# Method: NCI-60 one-dose screen, 48 h (100 = growth as untreated, 0 = no growth, -100 = all killed)
# Condition parameters: 10 µM unless noted
# Method: Growth inhibition of the NCI-H322M human Non-Small Cell Lung tumor cell line is measured as a screen for anti-cancer activity. Cells are grown in 96 well plates and exposed to the test compound for 48 hours. Compounds are tested at a single concentration, which is 10^-5 M for most compounds. The reported endpoint is percent growth (GI% or GIPRCNT), where numbers from 0 - 100% represent growth inhibition, and numbers from -100% - 0 represent cell death. […]
About 83,000 compounds went through this panel and 20% of them were active in at least one assay; those are over-represented in the sample as a whole.
API: value field is a number in %; no unit string.

{"Molecule": "Cn1c(SCC(=O)c2ccco2)nc2ccccc2c1=O", "growth [%]": 91.8}
{"Molecule": "CC(C)(O)c1cncc(-c2ccc3ncc(C#N)c(N4CCc5cc(F)c(Cl)cc54)c3c2)c1", "growth [%]": 11}
{"Molecule": "CCNC(=O)Oc1ccc(/C(=C(/C)c2ccc(Cl)cc2)c2ccc(OCCN3CCCCCC3)cc2)cc1", "growth [%]": 75.9}
{"Molecule": "Cc1ccc(-c2nc(SCC(=O)c3ccccc3)nc(Nc3ccc(S(N)(=O)=O)cc3)c2C#N)cc1", "growth [%]": 99.5}
{"Molecule": "Cc1ccc2c(n1)C(=O)C(Cl)=C(Nc1ccc(C(C)C)cc1)C2=O", "growth [%]": 84.4}
{"Molecule": "N#CC1=C2NCCCNc3oc(nc3C#N)Cc3ccccc3CC(=N1)O2", "growth [%]": 94.5}

Param item: CCOC(=O)c1c(NC(=O)c2cccc(C(F)(F)F)c2)sc2c3c(ccc12)OCN(C)C3 ; param system: NCI-H322M lung; output growth: 18

Let me check: COc1cc(C(=O)c2cc(C(C)=O)c3ccc(C)cn23)cc(OC)c1OC , system NCI-H322M lung, measured growth is 66

NCI-H322M lung assay, compound CCCCCCNC(=O)Oc1ccc(/C(=C(/C)c2ccc(OC)cc2)c2ccc(OCCN3CCCCCC3)cc2)cc1 , recorded growth = 82.1

---

# Test system: U251 CNS
# Method: NCI-60 one-dose screen, 48 h
# Condition parameters: 10 µM unless noted
Compounds without any hit were thinned out: in the full panel of roughly 83,000, 20% have a hit. Calls of active or inactive are those of the source. Rule for the calls: active = growth percent below 10; inactive = the rest.
Tick one outcome: active, inactive

Examples from the recorded data:
{"Compound": "CC1=C(C)C(=O)C(Nc2ccc3c(c2)OCO3)=C(Br)C1=O", "Target of assay": "U251 CNS", "Label class": "inactive"}
{"Compound": "NC(=O)c1c(NC(=O)c2ccc(C(F)(F)F)cc2)sc2c1CCC(=O)C2", "Target of assay": "U251 CNS", "Label class": "active"}
{"Compound": "O=C(O)c1ccc(-n2c(=O)n(-c3cccc(C(F)(F)F)c3)c(=O)c3cc(-c4ccc(F)cc4F)ccc32)cc1", "Target of assay": "U251 CNS", "Label class": "inactive"}
{"Compound": "CC(=O)N(O)CCCCCNC(=O)CCC(=O)N(O)CCCCCNC(=O)CCC(=O)N(O)CCCCCN(CCCCCCCCCC[P+](c1ccccc1)(c1ccccc1)c1ccccc1)CCCCCCCCCC[P+](c1ccccc1)(c1ccccc1)c1ccccc1", "Target of assay": "U251 CNS", "Label class": "active"}

# input Which outcome was entered for the compound Cc1csc(/N=C(N)/N=C(\N)c2cccc(Br)c2)n1 in this test?
# output inactive

# input Just curious, what result did CCNC(=O)Oc1ccc(/C(=C(/C)c2ccc(Cl)cc2)c2ccc(OCCN3CCCCCC3)cc2)cc1 get here?
# output inactive

# input # outcome recorded in this test, key = Cn1c(SCC(=O)c2ccc(F)cc2)nc2ccccc2c1=O
# output inactive

# input # fetch the recorded call for N#Cc1nc(-c2ccc(Cl)cc2)oc1N1CCC(S(=O)(=O)N2CCOCC2)CC1 here
# output inactive

# input Please state the recorded outcome for this compound: CC1=C(SCC(=O)OCCCCCC(C)C)C(=O)c2ccccc2C1=O
# output inactive

---

// reported growth per item
# Tested on: TK-10 renal
# Method: NCI-60 one-dose screen, 48 h (100 = growth as untreated, 0 = no growth, -100 = all killed)
# Condition parameters: 10 µM unless noted
The panel holds about 83,000 compounds, 20% with a hit somewhere; the sample as a whole holds those more often.
Respond numerically; units are % and should not be typed.

Examples with their reported growth follow.
{"Compound": "CS(=O)(=O)c1ccc(/C(=N/N=C(N)N)c2ccc(F)cc2)cc1", "Target of assay": "TK-10 renal", "Property measured": "growth", "Assay result": 92}
{"Compound": "O=C(CCCCCCNC(=O)C(O)(O)C(F)(F)F)Nc1ccc(-c2ccccc2)cc1", "Target of assay": "TK-10 renal", "Property measured": "growth", "Assay result": 5.83}
{"Compound": "O=C(Nc1ccc(Cl)c(C(F)(F)F)c1)Nc1ccc2oc(=O)ccc2c1", "Target of assay": "TK-10 renal", "Property measured": "growth", "Assay result": 70.4}
{"Compound": "CN1CCN(Cc2ccc(NC(=O)c3cncc(C#Cc4cnc5ccc(OCC(F)F)nn45)c3)cc2C(F)(F)F)CC1", "Target of assay": "TK-10 renal", "Property measured": "growth", "Assay result": -84.4}
{"Compound": "Cc1ccccc1N1CCN(C2=C(Cl)C(=O)c3ncccc3C2=O)CC1", "Target of assay": "TK-10 renal", "Property measured": "growth", "Assay result": 68.7}
{"Compound": "CC1(C)CC[C@]2(C(=O)O)CC[C@]3(C)C(=CC[C@@H]4[C@@]5(C)CC[C@H](NOCCCN)C(C)(C)[C@@H]5CC[C@]43C)[C@@H]2C1", "Target of assay": "TK-10 renal", "Property measured": "growth", "Assay result": 122}

Looking up Oc1ccc(-c2nc3ccc(/C(=N\N=C\c4ccc(Cl)cc4)c4ccccc4)cc3[nH]2)cc1 , I see its growth listed as 105

Looking up CN1CCN(c2ccc(Nc3nc(NCCNS(=O)(=O)c4ccccc4)c4sccc4n3)cc2)CC1 , I found its growth recorded as 142

Documented growth of Clc1ccc2[nH]cc(-c3nn4cc(-c5cccnc5)nc4s3)c2c1 : 184

The compound CCc1cc(OC(=O)N2CCC(N3CCCCC3)CC2)ccc1Nc1cc(-c2ccc(-n3cccn3)cc2)[nH]n1 showed growth equal to 95.7

Memo: Cc1ccsc1[C@H]1c2[nH]c3ccccc3c2C[C@H]2C(=O)N(CCCCCCC(=O)NO)CC(=O)N12 , reported growth: 84

Form field growth, entry C/C(=N\NC(N)=S)c1nnn(-c2ccc([N+](=O)[O-])cc2)c1C : 98.7

Given item C=C(C=O)[C@@H]1CC[C@]2(C(=O)O)CC[C@]3(C)C(CC[C@@H]4[C@@](C)(CCC#N)[C@H](C(=C)C=O)CC[C@]43C)[C@@H]12 (some centres undefined) , the value recorded as its growth is 128

The compound identified as Cc1csc(/N=C(N)/N=C(\N)c2cccc(C#N)c2)n1 registered its growth at 168

Value of measured growth for the entry O=C1C(N2CCN(c3ccccc3)CC2)=C(Cl)C(=O)c2ncccc21 : 123

Data point: Nc1ccc(Nc2ncnc3sc4c(c23)CCN(Cc2ccccc2)C4)cc1 ; growth = 134

Reported growth ( Cc1ccc(-c2nc(SCC(=O)c3ccccc3)nc(Nc3ccc(S(N)(=O)=O)cc3)c2C#N)cc1 ) = 67.5

Given item CCc1cccc2c3c(sc12)C(c1ccc(F)cc1)C(C#N)=C(/N=C/c1ccc(Cl)cc1)O3 (centres undefined) , the value recorded as its growth is 93.5

Consider CCCCCCOC(=O)c1cc(-c2ccc(F)cc2)nc2ccccc12 . Its measured growth is 118

---

# System: PC-3 prostate
# Method: NCI-60 one-dose screen, 48 h (100 = growth as untreated, 0 = no growth, -100 = all killed)
# Condition parameters: 10 µM unless noted
The panel holds about 83,000 compounds, 20% with a hit somewhere; the sample as a whole holds those more often. The source made the active and inactive calls. How the source made its calls: active means growth percent below 10; inactive means the rest.
Property measured: growth

{"Molecule": "CSc1ccc(/C(=N/N=C(N)N)c2ccc(Cl)cc2)cc1", "growth": "8.76% (active)"}
{"Molecule": "O=C1C(N2CCN(c3ccccc3)CC2)=C(Cl)C(=O)c2ncccc21", "growth": "71.9% (inactive)"}
{"Molecule": "C/C(=N\\NC(=O)/C=C/CC(=O)O)c1nnn(-c2ccc([N+](=O)[O-])cc2)c1C", "growth": "94.7% (inactive)"}
{"Molecule": "CCOC(=O)c1c(N)c(C#N)cn1Cc1ccc(Cl)cc1Cl", "growth": "71.5% (inactive)"}
{"Molecule": "CC1=C(SCC(=O)OCCCCCC(C)C)C(=O)c2ccccc2C1=O", "growth": "68.8% (inactive)"}

growth reported for this molecule O=C(Nc1cccc(C(F)(F)F)c1)N1CCN(c2cc(-c3cn(-c4ccccc4)nc3-c3cccc(O)c3)ccn2)CC1 : 28.2% (inactive)

Kindly note the recorded growth for Cc1ccc2c(n1)C(=O)C(Cl)=C(Nc1ccc(C(=O)OC(C)(C)C)cc1)C2=O , which is 72.1% [9.25 µM] (inactive)

// growth lookup, molecule = C[C@@H]1OCC2(CCN(c3cnc(C(=O)Nc4cc(F)cc5cccnc45)cn3)CC2)[C@@H]1N , result: 55.7% (inactive)

The recorded growth for entry C#C[C@]1(O)CC[C@H]2[C@@H]3CC=C4c5sc(N(C)c6ccccc6)nc5CC[C@]4(C)[C@H]3CC[C@@]21C equals 59.1% (inactive)

Reported growth ( Cc1ccc2c(n1)C(=O)C(Cl)=C(Nc1ccc(C(C)C)cc1)C2=O ) = 54% (inactive)

Item: NCCNC(=O)c1cccc(COc2ccccc2NC(=O)c2cc(Br)c(Br)[nH]2)c1 | growth: 82.1% (inactive)

growth reported for this molecule CCOC(=O)c1c(NC(=O)c2ccc(C(F)(F)F)cc2)sc2c3c(ccc12)OCN(C)C3 : 65.3% (inactive)

The reported value for Cn1cc(-c2cc3ncnc(Nc4ccc(NC(=O)Nc5cc(C(C)(C)C)on5)cc4)c3s2)cn1 in terms of growth is 28.5% (inactive)

According to the records, this molecule Cc1cc(=O)oc2cc(OCCCOc3ccc(/C=C/C(=O)Nc4ccc(Br)cc4)cc3)ccc12 displays growth of 81.8% (inactive)

Item: CN(C)CCCOc1ccc(C(=C(c2ccccc2)C2CCCC2)c2ccc(OCCCN(C)C)cc2)cc1 | growth: -65.5% (active)

Sample CC(Nc1ncnc2ccc(-c3cnc4cnccn34)cc12)c1ccccc1 (stereo unspecified) ; growth observed: 63.8% (inactive)
